- TEST_TARGET: human Smo (amino acids 181-787) (Homo sapiens)
- Construct: expressed in transfected cells; membrane preparation
- EXPERIMENTAL_PROTOCOL: Smo radioligand competition binding assay (displacement of 3H-PF-03451358 from HEK293 membranes)
- CONDITION_SUMMARY: 0.05 μM test compound; displacement of 3H-PF-03451358; read-out: SMO % inh. @ 0.05 μM
Use 90% as the dividing line for inhibition at 0.05 µM, with the line itself on the class 1 side and lower values as class 0.

{"columns": ["MOLECULE", "ANSWER_LABEL"],
 "data": [
  ["Cn1ccnc1C(O)C1CCN(c2cc(-c3nc4ccccc4n3C)c(Cl)cn2)CC1 (stereo not drawn)", "class 1"],
  ["Cc1nnc2n1CCN(c1cc(-c3nc4ccccc4n3C)c(Cl)cn1)C2", "class 0"],
  ["CNC(=O)N1CCN(c2cccc(-c3nc4ccccc4n3C)n2)CC1", "class 0"],
  ["Cn1c(-c2nc(N3CCC(O)CC3)ccc2Cl)nc2ccccc21", "class 1"],
  ["Cn1c(-c2cc(N3CC(CS(C)(=O)=O)C3)ncc2Cl)nc2ccccc21", "class 1"],
  ["Cn1c(-c2cc(N3CCOCC3)ncc2Cl)nc2ccccc21", "class 1"],
  ["COCCS(=O)(=O)NC1CN(c2cc(-c3nc4ccccc4n3C)c(Cl)cn2)C1", "class 1"],
  ["Cn1c(-c2cc(N3CC[C@H](O)C3)ncc2Cl)nc2ccccc21", "class 0"],
  ["CN(CCS(C)(=O)=O)c1cc(-c2nc3ccccc3n2C)c(Cl)cn1", "class 1"],
  ["COC1CCN(c2cc(-c3nc4cccnc4n3C)c(Cl)cn2)CC1", "class 0"],
  ["Cn1c(-c2cc(N3CCC(CS(C)(=O)=O)CC3)ncc2Cl)nc2ccccc21", "class 1"],
  ["Cn1c(-c2nc(N3CCN(S(C)(=O)=O)CC3)ncc2Cl)nc2ccccc21", "class 1"],
  ["CNC(=O)N1CCCN(c2cc(-c3nc4ccccc4n3C)ccn2)CC1", "class 1"],
  ["COC(=O)N1CCN(c2nccc(-c3nc4ccccc4n3C)n2)CC1", "class 0"],
  ["Cn1c(-c2cc(NCCO)ncc2Cl)nc2ccccc21", "class 0"],
  ["Cn1c(-c2cc(N3CC[C@@H](O)C3)ncc2Cl)nc2ccccc21", "class 0"]
]}

###

- TEST_TARGET: human Smo (amino acids 181-787) (Homo sapiens, UniProt Q99835)
- Sequence (Q99835 181-787): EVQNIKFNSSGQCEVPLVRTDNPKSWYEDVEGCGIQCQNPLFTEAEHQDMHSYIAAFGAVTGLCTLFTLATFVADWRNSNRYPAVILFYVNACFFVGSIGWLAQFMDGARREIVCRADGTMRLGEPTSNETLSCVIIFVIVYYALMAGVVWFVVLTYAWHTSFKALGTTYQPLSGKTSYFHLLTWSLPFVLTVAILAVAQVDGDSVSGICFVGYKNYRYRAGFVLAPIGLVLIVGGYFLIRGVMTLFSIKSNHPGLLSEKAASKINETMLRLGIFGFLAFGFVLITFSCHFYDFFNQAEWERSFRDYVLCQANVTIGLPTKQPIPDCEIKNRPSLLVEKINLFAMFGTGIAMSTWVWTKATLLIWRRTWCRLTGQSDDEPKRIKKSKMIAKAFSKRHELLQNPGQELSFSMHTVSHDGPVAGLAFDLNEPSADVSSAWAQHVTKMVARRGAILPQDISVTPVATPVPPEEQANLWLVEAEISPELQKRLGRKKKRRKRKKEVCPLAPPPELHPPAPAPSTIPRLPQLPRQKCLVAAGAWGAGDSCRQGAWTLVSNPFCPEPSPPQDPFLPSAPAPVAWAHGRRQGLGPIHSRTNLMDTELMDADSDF
pIC50: −log10 of the molar value.
Measured pIC50, listed per entry for reference.
MEASUREMENT_NAME: pIC50

{"columns": ["COMPOUND", "MEASUREMENT_NAME", "MEASURED_RESULT"],
 "data": [
  ["CN(CCO)c1cc(-c2nc3ccccc3n2C)c(Cl)cn1", "pIC50", 7.82],
  ["COC(=O)N1CCN(c2cc(-c3nc4ccccc4n3C)c(Cl)cn2)CC1", "pIC50", 7.76],
  ["C[C@H]1CN(c2cc(-c3nc4ccccc4n3C)c(Cl)cn2)CCN1S(C)(=O)=O", "pIC50", 8.05],
  ["CN1CCN(C2CCN(c3cc(-c4nc5ccccc5n4C)c(Cl)cn3)CC2)CC1", "pIC50", 6.90],
  ["COCCc1[nH]nc2c1CN(c1cc(-c3nc4ccccc4n3C)c(Cl)cn1)CC2", "pIC50", 7.08],
  ["Cn1c(-c2cc(N3CCOCC(Cc4cncnc4)C3)ncc2Cl)nc2ccccc21 (stereo not drawn)", "pIC50", 7.85],
  ["CCNC(=O)NC1CCN(c2cc(-c3nc4ccccc4n3C)c(F)cn2)CC1", "pIC50", 8.22],
  ["Cn1c(-c2nc(N3CCC(NS(C)(=O)=O)CC3)ccc2Cl)nc2ccccc21", "pIC50", 8.00],
  ["COC(=O)N1CCN(c2ncc(Cl)c(-c3nc4ccccc4n3C)n2)CC1", "pIC50", 7.85],
  ["COC(=O)NC1CCN(c2cc(-c3nc4ccccc4n3C)c(F)cn2)CC1", "pIC50", 8.10],
  ["Cn1c(-c2cc(N3C[C@](C)(CO)[C@](C)(CO)C3)ncc2Cl)nc2ccccc21", "pIC50", 6.96],
  ["CCS(=O)(=O)NC1CCN(c2cc(-c3nc4ccccc4n3C)c(F)cn2)CC1", "pIC50", 8.30],
  ["Cn1c(-c2cc(N3CCC(NS(C)(=O)=O)CC3)ncc2Cl)nc2cccnc21", "pIC50", 7.64],
  ["CNC(=O)NC1CCN(c2cc(-c3nc4ccccc4n3C)c(F)cn2)CC1", "pIC50", 7.64],
  ["Cc1cnc(N2CCN(S(C)(=O)=O)CC2)cc1-c1nc2ccccc2n1C", "pIC50", 7.48],
  ["Cn1c(-c2cc(N3C[C@H]4CC[C@@H](C3)N4)ncc2Cl)nc2ccccc21", "pIC50", 7.70],
  ["CNC(=O)COC1CCN(c2cc(-c3nc4ccccc4n3C)c(Cl)cn2)CC1", "pIC50", 7.68],
  ["Cn1c(-c2cc(N3CCN(CCS(C)(=O)=O)CC3)ncc2Cl)nc2ccccc21 [Example A-206]", "pIC50", 7.77],
  ["Cn1c(-c2cc(N3CCC(CS(C)(=O)=O)CC3)ncc2Cl)nc2ccccc21", "pIC50", 8.22],
  ["CN(C)CC(=O)N1CCN(c2ncc(Cl)c(-c3nc4ccccc4n3C)n2)CC1", "pIC50", 7.19],
  ["CCS(=O)(=O)N1CCN(c2cc(-c3nc4ccccc4n3C)c(F)cn2)CC1", "pIC50", 7.74],
  ["Cn1c(-c2cc(N3CCN(S(=O)(=O)CCO)CC3)ncc2F)nc2ccccc21", "pIC50", 7.72],
  ["Cn1c(-c2cc(N3CCC(NS(C)(=O)=O)CC3)ncc2Cl)nc2ccccc21", "pIC50", 8.10],
  ["Cn1c(-c2cc(N3CCC4(CC3)CC(O)CCO4)ncc2Cl)nc2ccccc21 (stereo not drawn)", "pIC50", 7.72],
  ["CC(=O)N1CCC(N(C)c2cc(-c3nc4ccccc4n3C)c(Cl)cn2)CC1", "pIC50", 7.82],
  ["CC(=O)N1CCCN(c2cc(-c3nc4ccccc4n3C)ccn2)CC1", "pIC50", 7.48],
  ["COCCS(=O)(=O)NC1CN(c2cc(-c3nc4ccccc4n3C)c(Cl)cn2)C1", "pIC50", 8.02],
  ["Cn1c(-c2cc(N3CCC(CS(N)(=O)=O)CC3)ncc2Cl)nc2ccccc21", "pIC50", 8.22],
  ["CC(=O)N1CCCN(c2cc(-c3nc4ccccc4n3C)c(Cl)cn2)CC1", "pIC50", 8.15],
  ["Cn1c(-c2cc(N3CCn4c(CCCO)nnc4C3)ncc2Cl)nc2ccccc21", "pIC50", 6.66],
  ["Cn1c(-c2cc(N3CCN(S(C)(=O)=O)CC3)ncc2Cl)nc2ccccc21", "pIC50", 7.53],
  ["CC(=O)N1[C@@H]2CC[C@H]1CN(c1cc(-c3nc4ccccc4n3C)c(Cl)cn1)C2", "pIC50", 7.57],
  ["CC(=O)N1CCN(c2cc(-c3nc4ccccc4n3C)c(Cl)cn2)[C@@H](C)C1", "pIC50", 8.05]
]}

###

log10 of IC50 data for human Smo (amino acids 181-787) (Homo sapiens, UniProt Q99835) follow.
MEASUREMENT_NAME: log10 of IC50 (log10 of the value in nM)

{"columns": ["COMPOUND", "TEST_TARGET", "log10 of IC50"],
 "data": [
  ["Cn1c(-c2cc(N3CCC(S(C)(=O)=O)C3)ncc2Cl)nc2ccccc21 (stereo not drawn) [Example A-24]", "human Smo (amino acids 181-787) (Homo sapiens, UniProt Q99835)", 1.73],
  ["Cn1c(-c2cc(N3CCN4C[C@H](O)CC4C3)ncc2Cl)nc2ccccc21 (stereo in doubt) [Example A-92]", "human Smo (amino acids 181-787) (Homo sapiens, UniProt Q99835)", 1.90],
  ["CC(=O)N1CCN(c2nccc(-c3nc4ccccc4n3C)n2)CC1 [Example C-2]", "human Smo (amino acids 181-787) (Homo sapiens, UniProt Q99835)", 2.65],
  ["Cn1c(-c2cc(N3CCC(O)CC3)ncc2Cl)nc2cccnc21 [Example A-169]", "human Smo (amino acids 181-787) (Homo sapiens, UniProt Q99835)", 2.34],
  ["CC(=O)NC1CCN(c2cc(-c3nc4ccccc4n3C)c(Cl)cn2)C1 (stereo not drawn) [Example A-42]", "human Smo (amino acids 181-787) (Homo sapiens, UniProt Q99835)", 2.12],
  ["CC(=O)N1CCN(c2cc(-c3nc4cccnc4n3C)c(Cl)cn2)CC1 [Example A-40]", "human Smo (amino acids 181-787) (Homo sapiens, UniProt Q99835)", 2.20],
  ["COC(=O)NC1CCN(c2cc(-c3nc4ccccc4n3C)c(Cl)cn2)CC1 [Example A-32]", "human Smo (amino acids 181-787) (Homo sapiens, UniProt Q99835)", 0.85],
  ["Cn1c(-c2cc(N3CCC4(CC3)CNC(=O)O4)ncc2Cl)nc2ccccc21 [Example A-198]", "human Smo (amino acids 181-787) (Homo sapiens, UniProt Q99835)", 0.95],
  ["Cn1c(-c2cc(N3CCOCC(Cc4ncccn4)C3)ncc2Cl)nc2ccccc21 (stereo not drawn) [Example A-112]", "human Smo (amino acids 181-787) (Homo sapiens, UniProt Q99835)", 2.20],
  ["COCc1nc(C2CCN(c3cc(-c4nc5ccccc5n4C)c(Cl)cn3)CC2)no1 [Example A-49]", "human Smo (amino acids 181-787) (Homo sapiens, UniProt Q99835)", 1.04],
  ["Cn1c(-c2ccnc(N3CCNCC3)c2)nc2ccccc21 [Example A-31]", "human Smo (amino acids 181-787) (Homo sapiens, UniProt Q99835)", 2.81],
  ["Cn1c(-c2cccc(N3CCN(S(C)(=O)=O)CC3)n2)nc2ccccc21 [Example B-7]", "human Smo (amino acids 181-787) (Homo sapiens, UniProt Q99835)", 1.99],
  ["CC(=O)N1CCN(c2ncc(Cl)c(-c3nc4ccccc4n3C)n2)CC1 [Example C-1]", "human Smo (amino acids 181-787) (Homo sapiens, UniProt Q99835)", 1.08],
  ["Cn1c(-c2cc(N3CCC(OC(N)=O)CC3)ncc2Cl)nc2ccccc21 [Example A-203]", "human Smo (amino acids 181-787) (Homo sapiens, UniProt Q99835)", 1.04],
  ["CNC(=O)N1CCN(c2nccc(-c3nc4ccccc4n3C)n2)CC1 [Example C-8]", "human Smo (amino acids 181-787) (Homo sapiens, UniProt Q99835)", 2.73],
  ["Cn1c(-c2cc(N3CCC(S(C)(=O)=O)CC3)ncc2Cl)nc2cccnc21 [Example A-37]", "human Smo (amino acids 181-787) (Homo sapiens, UniProt Q99835)", 2.39],
  ["COC(=O)N(C)C1CN(c2cc(-c3nc4ccccc4n3C)c(Cl)cn2)C1 [Example A-150]", "human Smo (amino acids 181-787) (Homo sapiens, UniProt Q99835)", 1.75],
  ["CC(=O)N(C)C1CN(c2cc(-c3nc4ccccc4n3C)c(Cl)cn2)C1 [Example A-177]", "human Smo (amino acids 181-787) (Homo sapiens, UniProt Q99835)", 2.24]
]}

# credit: patent US20120157471A1
